Target: CD3 (antibody antigen coated on the ELISA plate in Examples 1 to 3) (Homo sapiens (Human)) (UniProt P07766)
Sequence (P07766 23-126 limits assumed): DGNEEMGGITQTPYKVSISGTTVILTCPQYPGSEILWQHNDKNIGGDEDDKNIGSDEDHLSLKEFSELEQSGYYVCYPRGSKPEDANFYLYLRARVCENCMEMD
Assay: binding activity after conjugation with different R1; method not described
Metric name: Blocking fold after conjugation (fold)
Give the value in fold but do not write fold after it.

Look up Blocking fold after conjugation: anti-CD3 VH-Y61C mutant conjugated with cleavable linker and R1 = PEG10K (antibody, V domains shown, cleavable linker peptide P with blocker PEG10K on Cys 61) VH: EVQLVESGGGLVQPGGSLRLSCAASGFTFSTYAMNWVRQAPGKGLEWVGRIRSKYNNYATCYADSVKDRFTISRDDSKNSLYLQMNSLKTEDTAVYYCARHGNFGNSYVSWFAYWGQGTLVTVSS VL: QTVVTQEPSLTVSPGGTVTLTCRSSTGAVTTSNYANWVQQKPGQAPRGLIGGTNKRAPGVPARFSGSLLGDKAALTLLGAQPEDEAEYFCALWYSNLWVFGGGTKLTVL 20
